# Test system: SK-MEL-5
# experiment: NCI tumour cell line growth inhibition, 48 h
The source made the active and inactive calls. Rule as the data show it: active = GI50 up to about 1.1 µM and inactive = higher.
Could you please pick one outcome from this set? active, inactive

Problem: Short answer needed: outcome of this test for Nc1nc(N)c2c(Cl)c(CNc3ccc(C(=O)NC(CC(=O)O)C(=O)O)cc3)ccc2n1 (stereo not given) ?
Solution: active

Problem: Short answer needed: outcome of this test for "CN(C)c1nc(N(C)C)nc(N(C)CN(C)c2ccc(Cl)cc2)n1" ?
Solution: inactive

Problem: Short answer needed: outcome of this test for "CCCCCCCCCCCC[C@H](O)[C@H]1CC[C@H]([C@H](O)CCCC[C@H](O)CCCCC[C@@H](O)CC2=C[C@H](C)OC2=O)O1" ?
Solution: inactive

Problem: Short answer needed: outcome of this test for "COc1cc2nncc(SCc3ccc(Cl)c(Cl)c3)c2cc1OC" ?
Solution: inactive

Problem: Short answer needed: outcome of this test for COC(=O)CCC(=O)NC1C2CC3CC(C2)CC1C3 (stereo not given) ?
Solution: inactive

Problem: Short answer needed: outcome of this test for "COCn1c(C)c(C)c2c(=O)oc(C)nc21" ?
Solution: inactive

Problem: Short answer needed: outcome of this test for "Cn1c(=O)c2c(ncn2CN2CCN(Cn3cnc4c3c(=O)n(C)c(=O)n4C)CC2)n(C)c1=O" ?
Solution: inactive

Problem: Short answer needed: outcome of this test for "COc1ccc(/C=C2\N=C(c3ccccc3)OC2=O)c(OCc2ccccc2)c1" ?
Solution: inactive

Problem: Short answer needed: outcome of this test for "COc1cc(/C=C(\C#N)c2ccccc2)cc(OC)c1" ?
Solution: inactive

Problem: Short answer needed: outcome of this test for Cc1ccc(S(=O)(=O)NCC2CCCCC2=O)cc1 (stereo not given) ?
Solution: inactive

###

# Test system: M14
# experiment: NCI tumour cell line growth inhibition, 48 h
Calls of active or inactive are those of the source. Cut-off read from the data, not from the text of the source: active = GI50 up to about 1.1 µM and inactive = higher.
Give measured GI50 for each item. Keep answers brief.

Problem: If you can, please state the reported GI50 value of "N#C/C(N)=C(\C#N)NC(=O)C(=O)N/C(C#N)=C(\N)C#N" .
Solution: > 100 µM (inactive)

Problem: If you can, please state the reported GI50 value of "CCc1cc2c(O)c(c1)Cc1cc(CC)cc(c1O)Cc1cc(CC)cc(c1O)Cc1cc(CC)cc(c1O)Cc1cc(CC)cc(c1O)Cc1cc(CC)cc(c1O)Cc1cc(CC)cc(c1O)C2" .
Solution: > 100 µM (inactive)

Problem: If you can, please state the reported GI50 value of C[C@H]1[C@H](C)CC[C@]2(C(=O)OC3OC(CO)C(O)C(O)C3O)CC[C@]3(C)C(=CC[C@@H]4[C@@]5(C)C[C@@H](O)[C@@H]6OC(=O)c7cc(O)c(O)c(O)c7-c7c(cc(O)c(O)c7O)C(=O)OC[C@]6(CO)[C@@H]5CC[C@]43C)[C@H]12 (stereo partly drawn) .
Solution: 97.9 µM (inactive)

###

# Test system: SW-620
# experiment: NCI tumour cell line growth inhibition, 48 h
Calls of active or inactive are those of the source. Cut-off read from the data, not from the text of the source: active = GI50 up to about 1.1 µM and inactive = higher.
experimental_readout: GI50

Problem: If you can, please state the reported GI50 value of "N=C(N)NS(=O)(=O)c1ccc(NC(=O)c2cccc3c(O)c4ccccc4nc23)cc1" .
Solution: > 100 µM (inactive)

Problem: If you can, please state the reported GI50 value of "CCN(CC)CCC(=O)c1ccc(Oc2ccc(Cl)cc2)cc1" .
Solution: 22 µM (inactive)

Problem: If you can, please state the reported GI50 value of Clc1ccc2c(NCCCCN3OC3c3ccccc3)ccnc2c1 (centres undefined) .
Solution: 5.21 µM (inactive)

Problem: If you can, please state the reported GI50 value of "O=C(Nc1nc(C23CC4CC(CC(C4)C2)C3)cs1)c1cc2ccccc2oc1=O" .
Solution: > 100 µM (inactive)

Problem: If you can, please state the reported GI50 value of COC1OC2COC(=O)c3cc(O)c(O)c(O)c3-c3c(cc(O)c(O)c3O)C(=O)OC2C(O)C1O (centres undefined) .
Solution: 21.7 µM (inactive)

Problem: If you can, please state the reported GI50 value of CCOC(=O)NC1CC2CCC1(OC)C=C2C (centres undefined) .
Solution: > 90.6 µM (inactive)

Problem: If you can, please state the reported GI50 value of "CC(=O)N[C@@H](Cc1ccc(O)cn1)C(=O)NC1CCCCC1" .
Solution: > 100 µM (inactive)

Problem: If you can, please state the reported GI50 value of "COC(=O)[C@]1(C)CCC[C@]2(C)[C@@H](CCC(=O)C(C)C)[C@]3(C=O)O[C@@H]3C[C@H]21" .
Solution: 47.6 µM (inactive)

Problem: If you can, please state the reported GI50 value of NC(CNc1ccc(O)cc1)C(=O)O (centres undefined) .
Solution: > 100 µM (inactive)

Problem: If you can, please state the reported GI50 value of O=C(C/C(=N\NC(=O)C[n+]1ccccc1)C(=O)Nc1nc2ccc([N+](=O)[O-])cc2s1)CC(c1ccccc1)c1c(O)c2ccccc2oc1=O (centres undefined) .
Solution: > 100 µM (inactive)

Problem: If you can, please state the reported GI50 value of COC1CCC(=O)N1CN(C(C)=O)c1ccc(C)cc1 (centres undefined) .
Solution: > 100 µM (inactive)

Problem: If you can, please state the reported GI50 value of "Cc1cc(C)nc(NC(=S)Nc2ccc(Cl)cc2)c1" .
Solution: > 100 µM (inactive)

Problem: If you can, please state the reported GI50 value of "COC(=O)[C@H](Cc1ccccc1)NC(=O)N(CCC#N)CCCCN(CCC#N)C(=O)N[C@@H](Cc1ccccc1)C(=O)OC" .
Solution: > 100 µM (inactive)

Problem: If you can, please state the reported GI50 value of COC(=O)C1=C(C(=O)OC)C2CCC1CC2=O (centres undefined) .
Solution: 89.9 µM (inactive)

Problem: If you can, please state the reported GI50 value of CC1=C(C)CC2(CCCCC2=O)[S+]([O-])C1 (centres undefined) .
Solution: > 100 µM (inactive)

Problem: If you can, please state the reported GI50 value of CSC(=S)OC1CC(n2cnc3c(NC(=O)c4ccccc4)ncnc32)OC1CO[Si](C)(C)C(C)(C)C (centres undefined) .
Solution: 12.5 µM (inactive)

Problem: If you can, please state the reported GI50 value of "CC1=C(C(=O)Nc2cc(F)c(F)cc2F)C(c2ccc([N+](=O)[O-])cc2)C(C(=O)Nc2cc(F)c(F)cc2F)=C(C)N1" .
Solution: 48.2 µM (inactive)

Problem: If you can, please state the reported GI50 value of C[C@@H]1CC[C@@]2(OC1)O[C@H]1C[C@H]3[C@@H]4CC[C@H]5C[C@@H](OC6OC(CO)C(OC7OC(CO)C(O)C(OC8OCC(O)C(O)C8O)C7OC7OC(CO)C(O)C(O)C7O)C(O)C6O)[C@H](O)C[C@]5(C)[C@H]4CC[C@]3(C)[C@H]1[C@@H]2C (some centres undefined) .
Solution: 4.19 µM (inactive)

Problem: If you can, please state the reported GI50 value of CC1(O)CCC(C(C)(C)O)CC1 (centres undefined) .
Solution: > 100 µM (inactive)
